Values from the PETadex activity labels (doi:10.1021/acscatal.9b00568)

- Substrate: PET
- experiment.summary: Proxy for plastic degradation [HPLC-UV]
- measurement.parameters: pH 9; 40 °C; 24 h
endpoint: Proxy for plastic degradation (µM)
Supply the numeric figure in µM, leaving out any unit text.

Tell me Proxy for plastic degradation reported for unnamed (protein) MNFPRASRLMQAAVLGGLMAVSAAATAQTNPYARGPNPTAASLEASAGPFTVRSFTVSRPSGYGAGTVYYPTNAGGTVGAIAIVPGYTARQSSIKWWGPRLASHGFVVITIDTNSTLDQPDSRSSQQMAALRQVASLNGTSSSPIYGKVDTARMGVMGWSMGGGGSLISAANNPSLKAAAAQAPWHSSTNFSSVTVPTLIFACENDSIAPVNSSALPIYDSMSRNAKQFLEINGGSHSCANSGNSNQALIGKKGVAWMKRFMDNDTRYSTFACENPNSTRVSDFRTANCS
18

Tell me Proxy for plastic degradation reported for unnamed (protein) MNFPRASRLMQAAVLGGLMAVSAAATAQTNPYARGPNPTAASLEASAGPFTVRSFTVSRPSGYGAGTVYYPTNAGGTVGAIAIVPGYTARQSSIKWWGPRLASHGFVVITIDTNSTLDQPESRSSQQMAALRQVASLNGTSSSPIYGKVDTARMGVMGWSMGGGGSLISAANNPSLKAAAPQAPWDSSTNFSSVTVPTLIFACENDSIAPVNSSALPIYDSMSRNAKQFLEINGGSHSCANSGNSNQALIGKKGVAWMKRFMDNDTRYSTFACENPNSTRVSDFRTANCS
3.6
